Ref: PubChem BioAssay (NCI)

# Test system: MDA-N
# Procedure summary: NCI tumour cell line growth inhibition, 48 h
Measurement name: TGI

Entry under review: C[N+](C)(C)C1(C(=O)[O-])CC1 . Reported TGI?
> 100 µM

Entry under review: O/N=C1/CCCCCC1NO (centres undefined) . Reported TGI?
> 100 µM

Entry under review: COP(=O)(OC)C(O)/C=C/c1ccco1 (centres undefined) . Reported TGI?
> 100 µM

Entry under review: CCOC(=O)C1(C(=O)OCC)CSC1 . Reported TGI?
> 100 µM

Entry under review: O=NNc1cnccn1 . Reported TGI?
> 1250 µM

Entry under review: O=C1NC(N/N=C/c2ccccc2)=N/C1=C\c1cccs1 . Reported TGI?
> 25.2 µM

Entry under review: CC(=O)N1C(C(=O)NNc2ccccc2)CSC1c1ccccc1 (centres undefined) . Reported TGI?
> 100 µM

Entry under review: C=CCOC(=O)CCCCCCCCCCCCCCCOC(=O)c1c(CCC[C@@H](C)O[Si](C)(C)C(C)(C)C)nc(=O)n2c1CC[C@H]2CC1(CC/C=C\[C@H](CC)O[Si](C(C)C)(C(C)C)C(C)C)OCCO1 . Reported TGI?
> 100 µM

Entry under review: COc1cc(CNC(=O)[C@H](Cc2ccc(O)cn2)NC(C)=O)cc(OC)c1 . Reported TGI?
> 100 µM
